Biological target: Proteasome chymotrypsin-like activity (S26 protein from RPMI8226 cells) (Homo sapiens, UniProt P28074)
Sequence (P28074 60-263 limits assumed): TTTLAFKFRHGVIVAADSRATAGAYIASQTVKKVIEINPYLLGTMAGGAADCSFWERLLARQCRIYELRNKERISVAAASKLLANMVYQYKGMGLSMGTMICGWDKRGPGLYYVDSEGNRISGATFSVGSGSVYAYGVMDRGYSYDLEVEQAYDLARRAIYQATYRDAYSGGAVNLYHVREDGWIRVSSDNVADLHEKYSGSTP
Overview of reported IC50 across a group of compounds:

Sample answers from the record:
O=C(N[C@@H](Cc1ccccc1)B(O)O)C1(Cc2ccccc2)CC(COc2cccc(Cl)c2)=NO1 (stereo partly drawn)	< 50 nM
Cc1nc(C(=O)NCC2=NOC(Cc3ccccc3)(C(=O)N[C@@H](CC(C)C)B(O)O)C2)cs1 (stereo partly drawn)	< 10 nM
Cc1cccc(CC2(C(=O)N[C@@H](CC(C)C)B(O)O)CC(CNC(=O)c3sc(C)nc3C)=NO2)c1 (stereo partly drawn)	< 10 nM
CC(C)C[C@H](NC(=O)C1(COc2ccccc2)CC(CNC(=O)c2nccc3ccccc23)=NO1)B(O)O (stereo partly drawn)	< 10 nM
CC(C)C[C@H](NC(=O)C1(Cc2ccccc2)CC(CNC(=O)c2cccc3nccn23)=NO1)B(O)O (stereo partly drawn)	< 10 nM

Summary for this compound, CCC1(C(=O)N[C@@H](CC(C)C)B(O)O)CC(CNC(=O)c2cc(Cl)ccc2Cl)=NO1 (stereo partly drawn) : IC50 is < 50 nM

Summary for this compound, CC(C)C[C@H](NC(=O)C1(C(F)(F)c2ccccc2)CC(CNC(=O)c2nccc3ccccc23)=NO1)B(O)O (stereo partly drawn) : IC50 is < 25 nM

###

Target: Proteasome chymotrypsin-like activity (S26 protein from RPMI8226 cells) (Homo sapiens, UniProt P28074)
Metric name: IC50

Cc1cccnc1C(=O)NCC1=NOC(Cc2ccccc2)(C(=O)N[C@@H](CC(C)C)B(O)O)C1 (stereo partly drawn) [Example 159]	< 10 nM

Summary for this molecule, CC(C)C[C@H](NC(=O)C1(Cc2ccccc2)CC(CNC(=O)c2cccc3c2ccn3C)=NO1)B(O)O (stereo partly drawn) [Example 138] : IC50 is < 10 nM

Summary for this molecule, CC(C)C[C@H](NC(=O)C1(Cc2cccc(OC(F)(F)F)c2)CC(CNC(=O)c2nccc3ccccc23)=NO1)B(O)O (stereo partly drawn) [Example 216] : IC50 is < 10 nM

Summary for this molecule, CC(C)C[C@H](NC(=O)C1(Cc2cccc(C(F)(F)F)c2)CC(CNC(=O)c2nccc3ccccc23)=NO1)B(O)O (stereo partly drawn) [Example 215] : IC50 is < 10 nM

Summary for this molecule, CC(C)C[C@H](NC(=O)C1CC(CCc2ccccc2)=NO1)B(O)O (stereo partly drawn) [Example 11] : IC50 is < 250 nM

Summary for this molecule, CC(C)C[C@H](NC(=O)C1(Cc2ccccc2)CC(CNC(=O)c2c[nH]c3ccccc23)=NO1)B(O)O (stereo partly drawn) [Example 124] : IC50 is < 10 nM

Summary for this molecule, CC(C)C[C@H](NC(=O)C1CC(c2cccc(-c3ccccc3)c2)=NO1)B(O)O (stereo partly drawn) [Example 20] : IC50 is < 250 nM

Summary for this molecule, CC(C)C[C@H](NC(=O)C1(Cc2ccccc2)CC(CNC(=O)c2cc3ccccc3s2)=NO1)B(O)O (stereo partly drawn) [Example 93] : IC50 is < 10 nM

Summary for this molecule, CC(C)C[C@H](NC(=O)C1(Cc2ccccc2)CC(CNC(=O)c2nccnc2N)=NO1)B(O)O (stereo partly drawn) [Example 161] : IC50 is < 10 nM

Summary for this molecule, CC(C)C[C@H](NC(=O)C1(Cc2ccccc2)CC(CNC(=O)c2cc(Cl)ccc2Cl)=NO1)B(O)O (stereo partly drawn) [Example 85] : IC50 is < 10 nM

Summary for this molecule, CC(C)C[C@H](NC(=O)C1(Cc2ccccc2)CC(CNCc2cc(Cl)ccc2Cl)=NO1)B(O)O (stereo partly drawn) [Example 146] : IC50 is < 25 nM

Summary for this molecule, CC(C)C[C@H](NC(=O)C1(Cc2cccc(Cl)c2)CC(CNC(=O)c2cc(C(C)C)on2)=NO1)B(O)O (stereo partly drawn) [Example 223] : IC50 is < 10 nM

Summary for this molecule, CC(C)C[C@H](NC(=O)C1CC(CNC(=O)Cc2ccccc2)=NO1)B(O)O (stereo partly drawn) [Example 79] : IC50 is < 100 nM

Summary for this molecule, CC(C)C[C@H](NC(=O)C1(Cc2ccccc2)CC(CNC(=O)c2cc(-c3ccccc3)nn2C(C)C)=NO1)B(O)O (stereo partly drawn) [Example 207] : IC50 is < 10 nM

Summary for this molecule, CC(C)C[C@H](NC(=O)C1(Cc2ccccc2)CC(CNC(=O)c2ccnn2C2CCCC2)=NO1)B(O)O (stereo partly drawn) [Example 189] : IC50 is < 10 nM

Summary for this molecule, CC(C)C[C@H](NC(=O)C1CC(C2CC2)=NO1)B(O)O (stereo partly drawn) [Example 10] : IC50 is < 500 nM

Summary for this molecule, COc1cccc(C(=O)NCC2=NOC(Cc3ccccc3)(C(=O)N[C@@H](CC(C)C)B(O)O)C2)c1 (stereo partly drawn) [Example 284] : IC50 is < 10 nM

Summary for this molecule, CC[C@H](NC(=O)C1(Cc2ccccc2)CC(CNC(=O)c2nccc3ccccc23)=NO1)B(O)O (stereo partly drawn) [Example 289] : IC50 is < 25 nM

Summary for this molecule, CC(C)C[C@H](NC(=O)C1(Cc2cscn2)CC(CNC(=O)c2nccc3ccccc23)=NO1)B(O)O (stereo partly drawn) [Example 137] : IC50 is < 10 nM

Summary for this molecule, O=C(N[C@@H](Cc1ccccc1)B(O)O)C1(Cc2ccccc2)CC(COc2ccc3ccccc3c2)=NO1 (stereo partly drawn) [Example 263] : IC50 is < 50 nM

Summary for this molecule, CC(C)[C@H](NC(=O)C1(Cc2ccccc2)CC(CNC(=O)c2ccccc2)=NO1)B(O)O (stereo partly drawn) [Example 294] : IC50 is < 10 nM

###

pIC50: −log10 of the molar value.
These records show pIC50 for Proteasome caspase-like activity (S26 protein from RPMI8226 cells) (Homo sapiens (Human)).

Sample answers from the record:
CC(C)C[C@H](NC(=O)C1(Cc2ccccc2)CC(CNC(=O)c2ccccc2)=NO1)B(O)O (stereo partly drawn)	< 6.60
Cc1cc(C(=O)NCC2=NOC(Cc3ccccc3)(C(=O)N[C@@H](CC(C)C)B(O)O)C2)n(-c2ccc(F)cc2)n1 (stereo partly drawn)	< 6.00
Cc1nc(COCC2=NOC(Cc3ccccc3)(C(=O)N[C@@H](CC(C)C)B(O)O)C2)cs1 (stereo partly drawn)	< 6.60

Measured on Proteasome caspase-like activity (S26 protein from RPMI8226 cells) (Homo sapiens (Human)), Cc1nc(C(=O)NCC2=NOC(Cc3ccccc3)(C(=O)N[C@@H](CC(C)C)B(O)O)C2)cs1 (stereo partly drawn) has a documented pIC50 of < 6.00

Measured on Proteasome caspase-like activity (S26 protein from RPMI8226 cells) (Homo sapiens (Human)), CC(C)C[C@H](NC(=O)C1CC(CNC(=O)c2ccccc2)=NO1)B(O)O (stereo partly drawn) has a documented pIC50 of < 6.30

Measured on Proteasome caspase-like activity (S26 protein from RPMI8226 cells) (Homo sapiens (Human)), Cc1nc(C)c(COCC2=NOC(Cc3ccccc3)(C(=O)N[C@@H](CC(C)C)B(O)O)C2)s1 (stereo partly drawn) has a documented pIC50 of < 6.30

Measured on Proteasome caspase-like activity (S26 protein from RPMI8226 cells) (Homo sapiens (Human)), CC(C)C[C@H](NC(=O)C1(Cc2ccccc2)CC(CNC(=O)c2nn(C(C)C)c3ccccc23)=NO1)B(O)O (stereo partly drawn) has a documented pIC50 of < 6.30

Measured on Proteasome caspase-like activity (S26 protein from RPMI8226 cells) (Homo sapiens (Human)), CC(C)C[C@H](NC(=O)C1(Cc2ccc(F)cc2F)CC(CNC(=O)c2nccc3ccccc23)=NO1)B(O)O (stereo partly drawn) has a documented pIC50 of < 6.00

Measured on Proteasome caspase-like activity (S26 protein from RPMI8226 cells) (Homo sapiens (Human)), Cc1cnc(COCC2=NOC(Cc3ccccc3)(C(=O)N[C@@H](CC(C)C)B(O)O)C2)cn1 (stereo partly drawn) has a documented pIC50 of < 6.60

Measured on Proteasome caspase-like activity (S26 protein from RPMI8226 cells) (Homo sapiens (Human)), CC(C)C[C@H](NC(=O)C1CC(CNC(=O)c2cccc3ccccc23)=NO1)B(O)O (stereo partly drawn) has a documented pIC50 of < 6.60

Measured on Proteasome caspase-like activity (S26 protein from RPMI8226 cells) (Homo sapiens (Human)), Cc1cc(C(=O)NCC2=NOC(Cc3ccccc3)(C(=O)N[C@@H](CC(C)C)B(O)O)C2)n(-c2ccccc2)n1 (stereo partly drawn) has a documented pIC50 of < 6.00

Measured on Proteasome caspase-like activity (S26 protein from RPMI8226 cells) (Homo sapiens (Human)), CC(C)C[C@H](NC(=O)C1(Cc2ccccc2)CC(CNC(=O)c2cccc3c2cnn3C)=NO1)B(O)O (stereo partly drawn) has a documented pIC50 of < 6.30

Measured on Proteasome caspase-like activity (S26 protein from RPMI8226 cells) (Homo sapiens (Human)), CC(C)C[C@H](NC(=O)C1(Cc2ccccc2)CC(CNC(=O)c2cccc3c2cnn3C(C)C)=NO1)B(O)O (stereo partly drawn) has a documented pIC50 of < 6.30

Measured on Proteasome caspase-like activity (S26 protein from RPMI8226 cells) (Homo sapiens (Human)), CC(C)C[C@H](NC(=O)C1CC(CNC(=O)c2cccc3c2CCCC3)=NO1)B(O)O (stereo partly drawn) has a documented pIC50 of < 6.30

Measured on Proteasome caspase-like activity (S26 protein from RPMI8226 cells) (Homo sapiens (Human)), COc1cccc(CC2(C(=O)N[C@@H](CC(C)C)B(O)O)CC(CNC(=O)c3nccc4ccccc34)=NO2)c1 (stereo partly drawn) has a documented pIC50 of < 6.00

Measured on Proteasome caspase-like activity (S26 protein from RPMI8226 cells) (Homo sapiens (Human)), CC(C)C[C@H](NC(=O)C1(Cc2ccccc2)CC(CNC(=O)c2ccc3c(ccn3C(C)C)c2)=NO1)B(O)O (stereo partly drawn) has a documented pIC50 of < 6.60

Measured on Proteasome caspase-like activity (S26 protein from RPMI8226 cells) (Homo sapiens (Human)), Cc1cc(C(=O)NCC2=NOC(Cc3ccccc3)(C(=O)N[C@@H](CC(C)C)B(O)O)C2)no1 (stereo partly drawn) has a documented pIC50 of < 6.30

Measured on Proteasome caspase-like activity (S26 protein from RPMI8226 cells) (Homo sapiens (Human)), `CC(C)C[C@H](NC(=O)CNC(=O)c1cc(Cl)ccc1Cl)B(O)O` has a documented pIC50 of 8.15
